Source listed as patent US10647693B2.

Can you tell me half-life for the items I'm about to list?
assay: in vivo; details: SD, rat, po, 5 mg/kg
Put down the number, then write its unit next to it.

N#Cc1c(-c2c[nH]c3c(F)cc(F)cc23)nc(NC2C3CCC(CC3)C2C(=O)O)c(F)c1-c1ccc(C(F)(F)F)cc1 (racemic) = 1.76 h
N#Cc1c(-c2c[nH]c3c(F)cc(F)cc23)nc(NC2C3CCC(CC3)C2C(=O)O)c(F)c1-c1ccccc1 (racemic) = 1.46 h
N#Cc1c(-c2c[nH]c3c(F)cc(F)cc23)nc(NC2C3CCC(CC3)C2C(=O)O)c(F)c1-c1ccco1 (racemic) = 1.52 h

Proceeding to the next compound to report its half-life.
Problem: Return reported half-life. Input compound: N#Cc1c(-c2c[nH]c3ncc(F)cc23)nc(NC2C3CCC(CC3)C2C(=O)O)c(F)c1C1CC1 (racemic)
Solution: 3.39 h

====

assay: in vivo; settings: SD, rat, po, 5 mg/kg
quantity: AUC(0-inf) (ng·h/mL)
Answers are plain numbers, in ng·h/mL.

Some molecules with known AUC(0-inf) results, for comparison:
N#Cc1c(-c2c[nH]c3ncc(F)cc23)nc(NC2C3CCC(CC3)C2C(=O)O)c(F)c1C1CC1 (racemic) [Example 9] = 8230
N#Cc1c(-c2c[nH]c3c(F)cc(F)cc23)nc(NC2C3CCC(CC3)C2C(=O)O)c(F)c1-c1ccc(C(F)(F)F)cc1 (racemic) [Example 3] = 13100
N#Cc1c(-c2c[nH]c3c(F)cc(F)cc23)nc(NC2C3CCC(CC3)C2C(=O)O)c(F)c1-c1ccco1 (racemic) [Example 1] = 21600

Proceeding to the next molecule to report its AUC(0-inf).
Problem: Return reported AUC(0-inf). Input molecule: N#Cc1c(-c2c[nH]c3c(F)cc(F)cc23)nc(NC2C3CCC(CC3)C2C(=O)O)c(F)c1-c1ccccc1 (racemic) [Example 14]
Solution: 10300
